Data origin, for the record: patent US11130769B2

- system under test: UniProt:Q07820
- protocol notes: Cell free Mcl-1:Bim affinity assay (fluorescence polarization competition)
- Format: binding
- conditions: 15 nM MCL-1, 5 nM FITC-Bim, 1 hour at room temperature; class symbols; read-out: BIM_Ki
quantity name: Ki

- CO[C@H]1/C=C/C[C@@H](C)CC(=O)NS(=O)(=O)c2ccc3c(c2)N(C[C@@H]2CC[C@H]21)C[C@@]1(CCCc2cc(Cl)ccc21)CO3 [Example 84]: 1 to 100 nM
- CN(C(=O)O[C@H]1/C=C/CN(C)C2(CCC2)C(=O)NS(=O)(=O)c2ccc3c(c2)N(C[C@@H]2CC[C@H]21)C[C@@]1(CCCc2cc(Cl)ccc21)CO3)[C@@H]1CCOC1 [Example 242]: < 1 nM
- CC1(C)OC/C=C/[C@H](OCC(=O)N2C[C@@H](F)[C@H](F)C2)[C@@H]2CC[C@H]2CN2C[C@@]3(CCCc4cc(Cl)ccc43)COc3ccc(cc32)S(=O)(=O)NC1=O [Example 290]: < 1 nM
- CC(C)CNC(=O)O[C@H]1/C=C/COC(C)(C)C(=O)NS(=O)(=O)c2ccc3c(c2)N(C[C@@H]2CC[C@H]21)C[C@@]1(CCCc2cc(Cl)ccc21)CO3 [Example 182]: < 1 nM
- CC1(C)OC/C=C/[C@H](OC(=O)N2CCN(CCO)CC2)[C@@H]2CC[C@H]2CN2C[C@@]3(CCCc4cc(Cl)ccc43)COc3ccc(cc32)S(=O)(=O)NC1=O [Example 148]: < 1 nM
- CCN1C/C=C/[C@H](OC(=O)N2CCN(CCOC)CC2)[C@@H]2CC[C@H]2CN2C[C@@]3(CCCc4cc(Cl)ccc43)COc3ccc(cc32)S(=O)(=O)NC(=O)C1(C)C [Example 225]: 1 to 100 nM
- CC1(C)OC/C=C/[C@H](OC(=O)N2CCN3CCOC[C@H]3C2)[C@@H]2CC[C@H]2CN2C[C@@]3(CCCc4cc(Cl)ccc43)COc3ccc(cc32)S(=O)(=O)NC1=O [Example 171]: < 1 nM
- CC1(C)OC/C=C/[C@H](OC(=O)NC2CC2)[C@@H]2CC[C@H]2CN2C[C@@]3(CCCc4cc(Cl)ccc43)COc3ccc(cc32)S(=O)(=O)NC1=O [Example 188]: < 1 nM
- COCCN1CCCN(C(=O)O[C@H]2/C=C/COC(C)(C)C(=O)NS(=O)(=O)c3ccc4c(c3)N(C[C@@H]3CC[C@H]32)C[C@@]2(CCCc3cc(Cl)ccc32)CO4)CC1 [Example 60]: < 1 nM
- COC[C@H]1C(=O)NS(=O)(=O)c2ccc3c(c2)N(C[C@@H]2CC[C@H]2[C@H](O)/C=C/C[C@@H]1C)C[C@@]1(CCCc2cc(Cl)ccc21)CO3 [Example 88]: < 1 nM
- CN(C)[C@@H]1CCN(C(=O)O[C@H]2/C=C/COC(C)(C)C(=O)NS(=O)(=O)c3ccc4c(c3)N(C[C@@H]3CC[C@H]32)C[C@@]2(CCCc3cc(Cl)ccc32)CO4)C1 [Example 53]: < 1 nM
- CC1(C)OC/C=C/[C@H](OC(=O)N2CCN(c3ccccn3)CC2)[C@@H]2CC[C@H]2CN2C[C@@]3(CCCc4cc(Cl)ccc43)COc3ccc(cc32)S(=O)(=O)NC1=O [Example 177]: 1 to 100 nM
- CN(C)C(=O)O[C@H]1/C=C/CNC(C)(C)C(=O)NS(=O)(=O)c2ccc3c(c2)N(C[C@@H]2CC[C@H]21)C[C@@]1(CCCc2cc(Cl)ccc21)CO3 [Example 209]: < 1 nM
- CC1(C)OC/C=C/[C@H](OC(=O)NCCc2cccnc2)[C@@H]2CC[C@H]2CN2C[C@@]3(CCCc4cc(Cl)ccc43)COc3ccc(cc32)S(=O)(=O)NC1=O [Example 178]: < 1 nM
- CC1(C)OC/C=C/[C@H](O)[C@@H]2CC[C@H]2CN2C[C@]3(COc4ccc(cc42)S(=O)(=O)NC1=O)OCCc1cc(Cl)ccc13 [Example 249]: 1 to 100 nM
- CO[C@H]1/C=C/CCCCC(=O)NS(=O)(=O)c2ccc3c(c2)N(C[C@@H]2CC[C@H]21)C[C@@]1(CCCc2cc(Cl)ccc21)CO3 [Example 83]: 1 to 100 nM
- CN1C/C=C/[C@H](OCCN2CCC(F)(F)C2)[C@@H]2CC[C@H]2CN2C[C@@]3(CCCc4cc(Cl)ccc43)COc3ccc(cc32)S(=O)(=O)NC(=O)C1(C)C [Example 288]: 1 to 100 nM
- CN(C)C(=O)CO[C@@H]1/C=C/COC(C)(C)C(=O)NS(=O)(=O)c2ccc3c(c2)N(C[C@@H]2CC[C@H]21)C[C@@]1(CCCc2cc(Cl)ccc21)CO3 [Example 141]: < 1 nM
- CN([C@H]1/C=C/COC(C)(C)C(=O)NS(=O)(=O)c2ccc3c(c2)N(C[C@@H]2CC[C@H]21)C[C@@]1(CCCc2cc(Cl)ccc21)CO3)S(C)(=O)=O [Example 256]: 1 to 100 nM
- C[C@H]1C(=O)NS(=O)(=O)c2ccc3c(c2)N(C[C@@H]2CC[C@H]2[C@@H](OC(=O)N(C)C)/C=C/CN1C)C[C@@]1(CCCc2cc(Cl)ccc21)CO3 [Example 147]: < 1 nM
- O=C1NS(=O)(=O)c2ccc3c(c2)N(C[C@@H]2CC[C@H]2[C@H](O)/C=C/COC12CC2)C[C@@]1(CCCc2cc(Cl)ccc21)CO3 [Example 38]: < 1 nM

###

- System: H929 cells
- protocol notes: Cell viability assay (H929 10 FBS)
- Format: cell-based
- conditions: Homo sapiens, NCI-H929, 24 hours, read-out: H929_10FBS IC50
Each item that follows carries a reported IC50.
quantity name: IC50

- CCN1C/C=C/[C@H](OC(=O)N2CC(N(C)C)C2)[C@@H]2CC[C@H]2CN2C[C@@]3(CCCc4cc(Cl)ccc43)COc3ccc(cc32)S(=O)(=O)NC(=O)C1(C)C: < 500 nM
- CN(C)C1CN(C(=O)O[C@H]2/C=C/COC(C)(C)C(=O)NS(=O)(=O)c3ccc4c(c3)N(C[C@@H]3CC[C@H]32)C[C@@]2(CCOc3cc(Cl)ccc32)CO4)C1: < 500 nM
- CO[C@@H]1/C=C/CN(C)[C@@H](C2CC2)C(=O)NS(=O)(=O)c2ccc3c(c2)N(C[C@@H]2CC[C@H]21)C[C@@]1(CCCc2cc(Cl)ccc21)CO3: < 1000 nM
- CO[C@@H]1/C=C/CO[C@@H](C)C(=O)NS(=O)(=O)c2ccc3c(c2)N(C[C@@H]2CC[C@H]21)C[C@@]1(CCCc2cc(Cl)ccc21)CO3: < 1000 nM
- CO[C@@H]1/C=C/CC[C@@H](C)C(=O)NS(=O)(=O)c2ccc3c(c2)N(C[C@@H]2CC[C@H]21)C[C@@]1(CCCc2cc(Cl)ccc21)CO3: > 1000 nM

###

Below: a set of entries, each annotated with reported pIC50.
- Tested on: H929 cells
- protocol notes: Cell viability assay (H929 10 FBS)
- Type: cell-based
- conditions: Homo sapiens, NCI-H929, 24 hours, read-out: H929_10FBS IC50
pIC50: −log10 of the molar value.
quantity name: pIC50

• CN(C)C[C@H]1CCCN1C(=O)O[C@H]1/C=C/COC(C)(C)C(=O)NS(=O)(=O)c2ccc3c(c2)N(C[C@@H]2CC[C@H]21)C[C@@]1(CCCc2cc(Cl)ccc21)CO3 = > 6.30
• CCCN1C/C=C/[C@H](OC(=O)N(C)C)[C@@H]2CC[C@H]2CN2C[C@@]3(CCCc4cc(Cl)ccc43)COc3ccc(cc32)S(=O)(=O)NC(=O)C1(C)C = > 6.30
• CCN1C/C=C/[C@H](OC(=O)N2CCN(CCOC)CC2)[C@@H]2CC[C@H]2CN2C[C@@]3(CCCc4cc(Cl)ccc43)COc3ccc(cc32)S(=O)(=O)NC(=O)C1(C)C = > 6.30
• COC[C@@H]1CCCN1C(=O)O[C@H]1/C=C/COC(C)(C)C(=O)NS(=O)(=O)c2ccc3c(c2)N(C[C@@H]2CC[C@H]21)C[C@@]1(CCCc2cc(Cl)ccc21)CO3 = > 6.30
• CN(C)C(=O)O[C@@H]1/C=C/COC2(CC2)C(=O)NS(=O)(=O)c2ccc3c(c2)N(C[C@@H]2CC[C@H]21)C[C@@]1(CCCc2cc(Cl)ccc21)CO3 = > 6.00

###

- system under test: MCL-1 (Homo sapiens (Human))
- Sequence (Q07820 whole entry): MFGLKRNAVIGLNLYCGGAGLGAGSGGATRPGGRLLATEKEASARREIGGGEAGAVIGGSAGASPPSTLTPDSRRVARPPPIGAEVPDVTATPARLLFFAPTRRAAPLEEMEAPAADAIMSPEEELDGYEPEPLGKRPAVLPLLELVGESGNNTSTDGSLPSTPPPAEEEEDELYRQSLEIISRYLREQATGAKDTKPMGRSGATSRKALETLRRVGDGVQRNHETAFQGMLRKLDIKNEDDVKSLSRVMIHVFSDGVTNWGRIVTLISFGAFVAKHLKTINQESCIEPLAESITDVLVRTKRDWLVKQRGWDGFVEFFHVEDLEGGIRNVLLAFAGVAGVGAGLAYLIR
- protocol notes: Cell free Mcl-1:Bim affinity assay (fluorescence polarization competition)
- Format: binding
- conditions: 15 nM MCL-1, 5 nM FITC-Bim, 1 hour at room temperature; class symbols; read-out: BIM_Ki
pKi: −log10 of the molar value.
Quick list: pKi per entry.
quantity name: pKi

- CO[C@@H]1/C=C/CCC2(CC2)C(=O)NS(=O)(=O)c2ccc3c(c2)N(C[C@@H]2CC[C@H]21)C[C@@]1(CCCc2cc(Cl)ccc21)CO3 [Example 69]: 7.00 to 9.00
- CO[C@@H]1/C=C/CNCC(C)(C)C(=O)NS(=O)(=O)c2ccc3c(c2)N(C[C@@H]2CC[C@H]21)C[C@@]1(CCCc2cc(Cl)ccc21)CO3 [Example 68]: 7.00 to 9.00
- O=C1Cc2cncc(c2)OC[C@@H]2CC[C@H]2CN2C[C@@]3(CCCc4cc(Cl)ccc43)COc3ccc(cc32)S(=O)(=O)N1 [Example 104]: > 9.00
- CO[C@H]1/C=C/CNCC2(CCC2)C(=O)NS(=O)(=O)c2ccc3c(c2)N(C[C@H]2CCC21)CC1(CCCc2cc(Cl)ccc21)CO3 (stereo partly drawn) [Example 26]: 7.00 to 9.00
- C[C@@H]1CN(C(=O)O[C@H]2/C=C/COC(C)(C)C(=O)NS(=O)(=O)c3ccc4c(c3)N(C[C@@H]3CC[C@H]32)C[C@@]2(CCCc3cc(Cl)ccc32)CO4)CCN1 [Example 175]: > 9.00
- CN(C)CCN(C)C(=O)O[C@H]1/C=C/COC2(CCC2)C(=O)NS(=O)(=O)c2ccc3c(c2)N(C[C@@H]2CC[C@H]21)C[C@@]1(CCCc2cc(Cl)ccc21)CO3 [Example 233]: > 9.00
